B1: glmS ribozyme (parent)
chain: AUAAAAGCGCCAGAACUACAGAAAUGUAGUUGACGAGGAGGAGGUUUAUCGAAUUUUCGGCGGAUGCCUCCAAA

variants of: B1; assay: self-cleavage kobs at 2500 uM GlcN6P; higher = faster cleavage; RNA array; settings: with glucosamine-6-phosphate
Fewer inactive variants are shown than the library holds.
Class rule met: self-cleavage kobs at 2500 uM GlcN6P at least 0.0001 s⁻¹. Class rule not met: self-cleavage kobs at 2500 uM GlcN6P below 0.0001 s⁻¹.

Exercise: Quick check: does C10A U45G U54G have self-cleavage kobs at 2500 uM GlcN6P greater than or equal to 0.0001 s⁻¹?
Key: rule not met

Exercise: Quick check: does C34U U57C C58U have self-cleavage kobs at 2500 uM GlcN6P greater than or equal to 0.0001 s⁻¹?
Key: rule not met

Exercise: Quick check: does U45C C67A have self-cleavage kobs at 2500 uM GlcN6P greater than or equal to 0.0001 s⁻¹?
Key: rule met

Exercise: Quick check: does U30C U56G have self-cleavage kobs at 2500 uM GlcN6P greater than or equal to 0.0001 s⁻¹?
Key: rule met

Exercise: Quick check: does A14G A15G have self-cleavage kobs at 2500 uM GlcN6P greater than or equal to 0.0001 s⁻¹?
Key: rule met

Exercise: Quick check: does A14U G44U have self-cleavage kobs at 2500 uM GlcN6P greater than or equal to 0.0001 s⁻¹?
Key: rule not met

Exercise: Quick check: does G44C C58U have self-cleavage kobs at 2500 uM GlcN6P greater than or equal to 0.0001 s⁻¹?
Key: rule not met

Exercise: Quick check: does U46A A52G G63U C67G have self-cleavage kobs at 2500 uM GlcN6P greater than or equal to 0.0001 s⁻¹?
Key: rule not met

Exercise: Quick check: does G32U G37U C58U have self-cleavage kobs at 2500 uM GlcN6P greater than or equal to 0.0001 s⁻¹?
Key: rule not met

Exercise: Quick check: does C34G U65G have self-cleavage kobs at 2500 uM GlcN6P greater than or equal to 0.0001 s⁻¹?
Key: rule not met

Exercise: Quick check: does U30A G32C C34G U55A have self-cleavage kobs at 2500 uM GlcN6P greater than or equal to 0.0001 s⁻¹?
Key: rule not met

Exercise: Quick check: does A14G C67G C68A have self-cleavage kobs at 2500 uM GlcN6P greater than or equal to 0.0001 s⁻¹?
Key: rule not met

Exercise: Quick check: does U31C A53U have self-cleavage kobs at 2500 uM GlcN6P greater than or equal to 0.0001 s⁻¹?
Key: rule met

Exercise: Quick check: does A52U U57A C71U have self-cleavage kobs at 2500 uM GlcN6P greater than or equal to 0.0001 s⁻¹?
Key: rule met

Exercise: Quick check: does A52C C58U G59U have self-cleavage kobs at 2500 uM GlcN6P greater than or equal to 0.0001 s⁻¹?
Key: rule not met

Exercise: Quick check: does A14U A33U A42G have self-cleavage kobs at 2500 uM GlcN6P greater than or equal to 0.0001 s⁻¹?
Key: rule not met
